Biological target: human CCR10 (human) (UniProt P46092)
Sequence (P46092 whole entry): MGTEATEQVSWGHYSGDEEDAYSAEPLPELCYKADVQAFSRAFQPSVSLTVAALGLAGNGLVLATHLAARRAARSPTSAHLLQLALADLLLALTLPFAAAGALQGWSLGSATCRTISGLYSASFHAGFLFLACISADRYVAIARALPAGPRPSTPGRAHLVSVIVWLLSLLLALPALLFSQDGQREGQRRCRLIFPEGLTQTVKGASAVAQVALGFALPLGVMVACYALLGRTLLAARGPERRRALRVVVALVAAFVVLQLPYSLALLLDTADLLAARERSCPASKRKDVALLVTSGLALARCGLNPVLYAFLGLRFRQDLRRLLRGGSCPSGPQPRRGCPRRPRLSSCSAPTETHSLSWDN
Test: cell-based or functional assay
PROPERTY: IC50 (nM) Chemotaxis Assay
Your answer should be a plain number; it is taken to be in nM.

Consider the worked cases shown below.
SUBSTANCE	TARGET_UNDER_TEST	IC50 (nM) Chemotaxis Assay
cyclo(-Trp-Cyp-Trp-Ser-^DPip-Oic-) (peptide)	human CCR10 (human) (UniProt P46092)	9.6
cyclo(-Trp-Cyp-Trp-Dab-^DPro-Hyp(4BrBn)-) (peptide)	human CCR10 (human) (UniProt P46092)	2.5
cyclo(-Phe(3CF3)-Cyp-Trp-Dab-^DPro-Oic-) (peptide)	human CCR10 (human) (UniProt P46092)	3.2
cyclo(-Phe(4CN)-Cyp-Trp-Dab-^DPro-Oic-) (peptide)	human CCR10 (human) (UniProt P46092)	48
cyclo(-Trp-Cyp-Trp-Ser(Me)-^DPro-Oic-) (peptide)	human CCR10 (human) (UniProt P46092)	10.1

IN: State its IC50 (nM) Chemotaxis Assay for this substance: cyclo(-2Nal-Cyp-Trp-Dab-^DPip-Pip-) (peptide)
OUT: 9.7

IN: State its IC50 (nM) Chemotaxis Assay for this substance: cyclo(-Trp-Cyp-Trp-Dab-^DPro-Hyp(Bn)-) (peptide)
OUT: 14

IN: State its IC50 (nM) Chemotaxis Assay for this substance: cyclo(-Trp-Cyp-Trp-Dab(Dab)-^DPro-Oic-) (peptide)
OUT: 50.2

IN: State its IC50 (nM) Chemotaxis Assay for this substance: cyclo(-Trp-Cyp-Trp-Lys(Ac)-^DPro-Oic-) (peptide)
OUT: 2.3

====

Molecular target: human CCR10 (human) (UniProt P46092)
Test: cell-based or functional assay
Reported log10(IC50 (nM) Chemotaxis Assay) values are given for each entry in this list.
Heads up, the numbers here are log10 of IC50 (nM) Chemotaxis Assay in nM units.

SUBSTANCE	TARGET_UNDER_TEST	NUMBER
cyclo(-Trp(5OH)-Cyp-Trp-Arg-^DPro-Thz(5,5Me2)-) (peptide)	human CCR10 (human) (UniProt P46092)	2.04
cyclo(-Trp-Cyp-Trp-Dap(CONH2)-^DPro-Oic-) (peptide)	human CCR10 (human) (UniProt P46092)	0.67
cyclo(-Trp-Cyp-Trp-Dab-^DPro-Pro((4R)Bn)-) (peptide)	human CCR10 (human) (UniProt P46092)	0.36
cyclo(-Trp-Cyp-Trp-Ser-^DPro-Hyp(Bn)-) (peptide)	human CCR10 (human) (UniProt P46092)	1.55

As a next step, examine the substance that follows.
IN: State its log10(IC50 (nM) Chemotaxis Assay) for this substance: cyclo(-Trp-Cyp-Trp-Dab-^DPro-Oic-) (peptide)
OUT: 1.46

====

Reported IC50 (nM) Chemotaxis Assay values are given for each entry in this list.
Target: human CCR10 (human)
Experiment: cell-based or functional assay
Your answer should be a plain number; it is taken to be in nM.

IN: State its IC50 (nM) Chemotaxis Assay for this substance: cyclo(-Trp-Chx-Trp-Dab-^DPro-Oic-) (peptide)
OUT: 3.1

====

Target: human CCR10 (human)
Experiment: cell-based or functional assay
Simple rule here: IC50 (nM) Calcium Flux Assay less than 50 nM is y, otherwise n.

# count of solved cases: 8
SUBSTANCE	LABEL_VALUE
cyclo(-Trp-Cyp-Trp-Met(O2)-^DPro-Oic-) (peptide)	y
cyclo(-Phe(4CN)-Cyp-Trp-Dab-^DPro-Hyp(Bn)-) (peptide)	n
cyclo(-Trp(6Cl)-Cyp-Trp-Dab-^DPro-Hyp(Bn)-) (peptide)	y
cyclo(-hTyr-Cyp-Trp-Dab-^DPro-Oic-) (peptide)	n
cyclo(-Bbta-Cyp-Trp-Dab-^DPro-Oic-) (peptide)	n
cyclo(-Phe(4COOMe)-Cyp-Trp-Dab-^DPro-Oic-) (peptide)	n
cyclo(-Trp-Cyp-Trp-Dap-^DPro-Oic-) (peptide)	n
cyclo(-Trp-Cyp-Trp-Dab((MeO(CH2)2)(Me)NCO)-^DPro-Oic-) (peptide)	y

IN: Strictly below 50 nM: is that where IC50 (nM) Calcium Flux Assay of cyclo(-Trp-Cyp-Trp-Dab-^DPro-Pro(5,5Me2)-) (peptide) sits?
OUT: n

Just for reference, patent US20120283168A1 is where these values come from.
